test system: HBV viral production in AD38 cells; assay: Viral load production in AD38 cells by quantitative PCR of the HBV core sequence in supernatant; type: cell-based; details: Hepatitis B virus, 144 h; 10 μM compound, 6 days at 37° C., viral load in supernatant compared against DMSO control wells; read-out: AD38 Viral Load (CpAM/DMSO %) at 10 μM
Value Type: activity at 10 µM (%)
A number alone suffices; assume %.

Prompt: Give activity at 10 µM (HBV viral production in AD38 cells) of the following compound: O=C(NCc1ccc(-c2ccccc2)cc1)c1ccc2c(c1)NC(=O)c1ccccc1S2
Completion: 4

Prompt: Could you do the same for O=C(NC[C@H](O)c1ccccc1)c1ccc2c(c1)NC(=O)c1ccccc1S2 , please?
Completion: 2

Prompt: Could you do the same for CCN1c2ccc(C(=O)NCc3cncnc3)cc2NC(=O)c2ccccc21 , please?
Completion: 2

Prompt: Could you do the same for O=C(NCc1cncnc1)c1ccc2c(c1)NC(=O)c1ccc(F)cc1S2 , please?
Completion: 3

Prompt: Could you do the same for O=C(NCCc1ccccn1)c1ccc2c(c1)NC(=O)c1cccc(F)c1S2 , please?
Completion: 1

Prompt: Could you do the same for Nc1nnc(CCNC(=O)c2ccc3c(c2)NC(=O)c2ccccc2S3)s1 , please?
Completion: 1

Prompt: Could you do the same for O=C(NCc1cncs1)c1ccc2c(c1)NC(=O)c1ccccc1[S+]2[O-] (stereo not drawn) , please?
Completion: 5

Prompt: Could you do the same for CCOC(=O)C(NC(=O)c1ccc2c(c1)NC(=O)c1cc(F)ccc1S2)c1ccccn1 (stereo not drawn) , please?
Completion: 65

Prompt: Could you do the same for O=C(NCCc1ccc(-c2cncnc2)cc1)c1ccc2c(c1)NC(=O)c1cc(F)ccc1S2 , please?
Completion: 43

Prompt: Could you do the same for O=C(NCc1cncnc1)c1ccc2c(c1)NC(=O)c1ccccc1S2 , please?
Completion: 1

Prompt: Could you do the same for O=C(NCc1ccccn1)c1ccc2c(c1)NC(=O)c1ccccc1S2 , please?
Completion: 25

Prompt: Could you do the same for O=C(NCCc1ccccn1)c1ccc2c(c1)NC(=O)c1cc(F)ccc1S2 , please?
Completion: 1

Prompt: Could you do the same for Cc1cc(C(=O)NCCC2CCCCC2)cc2c1Sc1ccccc1C(=O)N2 , please?
Completion: 36

Prompt: Could you do the same for O=C1Nc2cc(S(=O)(=O)N3CCCCC3)ccc2Sc2ccccc21 , please?
Completion: 105

Prompt: Could you do the same for Cc1c(C(=O)NCCc2cncs2)ccc2c1NC(=O)c1ccccc1S2 , please?
Completion: 8

Prompt: Could you do the same for O=C1Nc2cc(S(=O)(=O)Nc3ccccc3)ccc2Sc2ccccc21 , please?
Completion: 48

Prompt: Could you do the same for O=C(NCCc1ccccc1)c1ccc2c(c1)Sc1ccccc1C(=O)N2 , please?
Completion: 18

Prompt: Could you do the same for O=C(NCc1ccccc1OC(F)(F)F)c1ccc2c(c1)NC(=O)c1ccccc1S2 , please?
Completion: 42

----------
system: AD38 cells; test: Viability of AD38 cells (Promega CellTiter-Glo) at the end of compound treatment; type: cell-based; conditions: 10 μM compound, 6 days, luminescence normalized against DMSO control wells (controls being 100%)
Value Type: AD38 Viability Normalized Result (CPAM/DMSO %) at 10 μM
A number alone suffices; assume %.

Prompt: Give AD38 Viability Normalized Result (CPAM/DMSO %) at 10 μM (AD38 cells) of the following molecule: O=C(NCc1ccc(O)cc1)c1ccc2c(c1)NC(=O)c1ccccc1S2
Completion: 95

Prompt: Could you do the same for O=C(NCc1cncs1)c1ccc2c(c1)NC(=O)c1ccc(F)cc1S2 , please?
Completion: 101

Prompt: Could you do the same for COC(=O)C(Cc1cncnc1)NC(=O)c1ccc2c(c1)NC(=O)c1cc(F)ccc1S2 (stereo not shown) , please?
Completion: 95

Prompt: Could you do the same for O=C(NCCc1cnco1)c1ccc2c(c1)NC(=O)c1cc(F)ccc1S2 , please?
Completion: 75

The measured values listed here are drawn from patent US10183936B2.
